biological target: PIM3 (Homo sapiens); assay: KinaseGlo Pim3 ATP depletion assay; type: biochemical
measurement.type: IC50
# answer = value followed by unit

In the examples that follow, each entry is paired with its recorded IC50.
{"compound": "O=C(Nc1cnccc1C1OCCCO1)c1csc(-c2c(F)cccc2F)n1", "test.target": "PIM3 (Homo sapiens)", "experimental.result": "40 nM"}
{"compound": "O=C(Nc1cnccc1[C@H]1C[C@@H](O)[C@@]2(O)CCC[C@H]2O1)c1c[nH]cc(-c2ccccc2)c1=O", "test.target": "PIM3 (Homo sapiens)", "experimental.result": "492 nM"}
{"compound": "C[C@H]1O[C@@H](c2ccncc2NC(=O)c2ccc(F)c(-c3c(F)cccc3F)n2)[C@H](O)[C@@H](O)[C@]1(C)O (stereo in doubt)", "test.target": "PIM3 (Homo sapiens)", "experimental.result": "44 nM"}
{"compound": "O=C(Nc1cnccc1[C@H]1C[C@@H](O)[C@H](O)[C@@H](CCl)O1)c1ccnc(-c2c(F)cccc2F)n1", "test.target": "PIM3 (Homo sapiens)", "experimental.result": "17 nM"}
{"compound": "Nc1cnc(-c2c(F)cccc2F)nc1C(=O)Nc1cnccc1[C@@H]1C[C@H](N)[C@]2(O)CCC[C@@H]2O1", "test.target": "PIM3 (Homo sapiens)", "experimental.result": "373 nM"}
{"compound": "CC[C@H]1O[C@@H](c2ccncc2NC(=O)c2ccnc(-c3c(F)cccc3F)n2)C[C@@H](O)[C@@H]1O", "test.target": "PIM3 (Homo sapiens)", "experimental.result": "38 nM"}
{"compound": "N#CC[C@H]1O[C@@H](c2ccncc2NC(=O)c2nc(-c3c(F)cccc3F)c(F)cc2N)C[C@@H](O)[C@@H]1O [Example 139]", "test.target": "PIM3 (Homo sapiens)", "experimental.result": "2 nM"}
{"compound": "C[C@H]1O[C@@H](c2ccncc2NC(=O)c2ccc(F)c(-c3c(F)cccc3F)n2)C[C@@H](O)[C@]1(C)O (stereo in doubt)", "test.target": "PIM3 (Homo sapiens)", "experimental.result": "16 nM"}

Ask: Identify the measured IC50 of C[C@H]1O[C@@H](c2ccncc2NC(=O)c2nc(-c3ccccc3)ncc2N)C[C@@H](O)[C@]1(C)O for PIM3 (Homo sapiens).
Reply: 3 nM

Ask: Form entry - test system: PIM3 (Homo sapiens); read-out: IC50; compound: CC[C@]1(O)[C@H](O)C[C@H](c2ccncc2NC(=O)c2nc(-c3c(F)cccc3F)ncc2N)O[C@@H]1C [Example 143]
Reply: 2.4 nM

Ask: Recorded IC50 for O=C(Nc1cnccc1[C@@H]1C[C@H](O)[C@]2(O)CCCC[C@@H]2O1)c1ccc(F)c(-c2c(F)cccc2F)n1 with PIM3 (Homo sapiens), please?
Reply: 162 nM

Ask: Notebook: pull reported IC50 for PIM3 (Homo sapiens), entry N#C[C@H]1OC(c2ccncc2NC(=O)c2nc(-c3c(F)cccc3F)c(F)cc2N)=C[C@@H](O)[C@@H]1O
Reply: 3.1 nM

Ask: What reported IC50 corresponds to C[C@H]1O[C@@H](c2ccncc2NC(=O)c2ccc(F)c(-c3c(F)cccc3F)n2)C[C@@H](N)[C@@H]1O on PIM3 (Homo sapiens)?
Reply: 7 nM

Ask: Observed IC50 on PIM3 (Homo sapiens) for C[C@H]1O[C@@H](c2ccncc2NC(=O)c2ccc(F)c(-c3c(F)cccc3F)n2)[C@H](F)C(=O)[C@]1(C)O , please.
Reply: 6 nM
